experimental.protocol: MTS assay, metabolic inhibition
Format: cell-based, mouse
Numbered stars: 1 amine (or outer) side, 2 acyl side, 3 side chain; on linkers, the order of the positions; unused ones are H or OH. Square brackets hold non-standard residues; d marks the D form. Peptide text beside a SMILES is read from it. X1 = CC(C)[C@H](C)N(CC(=O)[*:2])[*:1]; Nspe = C[C@H](NCC(=O)O)c1ccccc1; Nlys = NCCCCNCC(=O)O
Task for the reader: assign each of the following molecules its reported pIC50.
Please report pIC50 as the negative decimal logarithm of the molar concentration, giving only the number.

Which pIC50 is listed for CC(C)[C@H](C)N(CC(=O)N(CCCCN)CC(=O)N(CC(=O)N(CC(=O)N(CCCCN)CC(=O)N(CC(=O)N(CC(=O)N(CCCCN)CC(=O)N(CC(=O)N(CC(N)=O)[C@@H](C)c1ccccc1)[C@@H](C)c1ccccc1)[C@@H](C)C(C)C)[C@@H](C)C(C)C)[C@@H](C)c1ccccc1)[C@@H](C)c1ccccc1)C(=O)CN(C(=O)CNCCCCN)[C@@H](C)C(C)C [1-Nsdp2,3,8,9, H-(Nlys-Nsdp-Nsdp-Nlys-Nspe-Nspe)2-NH2] (H-[Nlys][X1][X1][Nlys][Nspe][Nspe][Nlys][X1][X1][Nlys][Nspe][Nspe]-NH2) ?
4.72

Also check C[C@@H](c1ccccc1)N(CC(N)=O)C(=O)CN(CCCCN)C(=O)CN(CCCCN)C(=O)CN(C(=O)CN(C(=O)CN(CCCCN)C(=O)CN(C(=O)CN(CCCCN)C(=O)CN(CCCCN)C(=O)CN(C(=O)CN(C(=O)CNCCCCN)[C@@H](C)c1ccccc1)[C@@H](C)c1ccccc1)[C@@H](C)c1ccccc1)[C@@H](C)c1ccccc1)[C@@H](C)c1ccccc1 [1-Nlys5,11, H-(Nlys-Nspe-Nspe-Nlys-Nlys-Nspe)2-NH2] (H-[Nlys][Nspe][Nspe][Nlys][Nlys][Nspe][Nlys][Nspe][Nspe][Nlys][Nlys][Nspe]-NH2)
4.07
